The origin of these recorded values is ChEMBL document CHEMBL1914389.

Target: Glucocorticoid receptor (Homo sapiens) (UniProt P04150)
Sequence (P04150 whole entry): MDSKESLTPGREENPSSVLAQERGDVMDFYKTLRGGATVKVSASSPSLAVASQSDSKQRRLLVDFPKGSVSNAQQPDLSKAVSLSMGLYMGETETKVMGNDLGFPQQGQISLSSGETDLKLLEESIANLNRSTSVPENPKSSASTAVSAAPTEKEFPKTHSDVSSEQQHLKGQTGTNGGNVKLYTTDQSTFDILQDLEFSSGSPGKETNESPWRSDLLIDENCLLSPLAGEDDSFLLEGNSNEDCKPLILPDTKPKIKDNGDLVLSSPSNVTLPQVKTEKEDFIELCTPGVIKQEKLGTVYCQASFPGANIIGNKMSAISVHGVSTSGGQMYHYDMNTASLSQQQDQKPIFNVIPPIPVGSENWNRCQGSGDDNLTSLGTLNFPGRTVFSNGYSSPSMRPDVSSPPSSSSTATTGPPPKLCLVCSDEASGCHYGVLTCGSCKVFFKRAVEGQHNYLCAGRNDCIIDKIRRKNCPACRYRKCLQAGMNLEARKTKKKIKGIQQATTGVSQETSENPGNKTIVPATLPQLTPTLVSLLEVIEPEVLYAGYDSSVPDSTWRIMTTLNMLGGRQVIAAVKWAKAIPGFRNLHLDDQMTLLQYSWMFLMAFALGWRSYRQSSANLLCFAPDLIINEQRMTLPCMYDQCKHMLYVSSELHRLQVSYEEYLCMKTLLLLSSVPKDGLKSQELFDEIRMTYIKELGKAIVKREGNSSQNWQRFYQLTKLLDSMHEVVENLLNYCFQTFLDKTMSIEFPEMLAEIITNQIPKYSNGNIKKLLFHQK
Experiment: Transrepression activity at glucocorticoid receptor in human H292 cells assessed as inhibition of TNF-stimulated IL-6 cytokine synthesis at 1 uM relative to control
Type: cell-based
assay.metric: Emax (%)

| compound | experimental.system | assay.metric | value.unit | recorded.result |
| --- | --- | --- | --- | --- |
| C[C@]12C=CC(=O)C=C1CC[C@@H]1[C@@H]2[C@@H](O)C[C@@]2(C)[C@H]1CC[C@]2(OC(=O)c1ccco1)C(=O)CSc1nc2ccccc2s1 | Glucocorticoid receptor (Homo sapiens) (UniProt P04150) | Emax | % | 99 |
| Cc1nc(SCC(=O)[C@@]2(OC(=O)c3ccco3)CC[C@H]3[C@@H]4CCC5=CC(=O)CC[C@]5(C)[C@H]4[C@@H](O)C[C@@]32C)sc1C | Glucocorticoid receptor (Homo sapiens) (UniProt P04150) | Emax | % | 100 |
| C[C@]12CCC(=O)C=C1CC[C@@H]1[C@@H]2[C@@H](O)C[C@@]2(C)[C@H]1CC[C@]2(OC(=O)c1ccco1)C(=O)CSc1nc2ccccc2s1 | Glucocorticoid receptor (Homo sapiens) (UniProt P04150) | Emax | % | 100 |
| C[C@]12CCC(=O)C=C1CC[C@@H]1[C@@H]2[C@@H](O)C[C@@]2(C)[C@H]1CC[C@]2(OC(=O)c1ccco1)C(=O)CSc1nccc2ccccc12 | Glucocorticoid receptor (Homo sapiens) (UniProt P04150) | Emax | % | 86 |
| C[C@]12C=CC(=O)C=C1CC[C@@H]1[C@@H]2[C@@H](O)C[C@@]2(C)[C@H]1CC[C@]2(OC(=O)c1ccco1)C(=O)CSc1nccc2ccccc12 | Glucocorticoid receptor (Homo sapiens) (UniProt P04150) | Emax | % | 96 |
| C[C@]12CCC(=O)C=C1CC[C@@H]1[C@@H]2[C@@H](O)C[C@@]2(C)[C@H]1CC[C@]2(OC(=O)c1ccco1)C(=O)CSc1ncccn1 | Glucocorticoid receptor (Homo sapiens) (UniProt P04150) | Emax | % | 94 |
| C[C@]12CCC(=O)C=C1CC[C@@H]1[C@@H]2[C@@H](O)C[C@@]2(C)[C@H]1CC[C@]2(OC(=O)c1ccco1)C(=O)CSc1nc2ccccc2o1 | Glucocorticoid receptor (Homo sapiens) (UniProt P04150) | Emax | % | 97 |
| C[C@H]1C[C@@H]2[C@H]([C@@H](O)C[C@@]3(C)[C@H]2CC[C@]3(O)C(=O)CSc2nc3ccccc3s2)[C@@]2(C)C=CC(=O)C=C12 | Glucocorticoid receptor (Homo sapiens) (UniProt P04150) | Emax | % | 95 |
| C[C@@H]1C[C@H]2[C@@H]3CCC4=CC(=O)C=C[C@]4(C)[C@@]3(Cl)[C@@H](O)C[C@]2(C)[C@@]1(O)C(=O)CSc1nc2ccccc2s1 | Glucocorticoid receptor (Homo sapiens) (UniProt P04150) | Emax | % | 88 |
| C[C@]12CCC(=O)C=C1CC[C@H]1[C@@H]3CC[C@](O)(C(=O)CSc4nc5ccccc5s4)[C@@]3(C)C[C@H](O)[C@@]12F | Glucocorticoid receptor (Homo sapiens) (UniProt P04150) | Emax | % | 95 |
| Cn1c(SCC(=O)[C@@]2(OC(=O)c3ccco3)CC[C@H]3[C@@H]4CCC5=CC(=O)CC[C@]5(C)[C@H]4[C@@H](O)C[C@@]32C)nc2ccccc21 | Glucocorticoid receptor (Homo sapiens) (UniProt P04150) | Emax | % | 98 |
| C[C@]12CCC(=O)C=C1CC[C@@H]1[C@@H]2[C@@H](O)C[C@@]2(C)[C@H]1CC[C@]2(O)C(=O)CSc1nc2ccccc2s1 | Glucocorticoid receptor (Homo sapiens) (UniProt P04150) | Emax | % | 97 |
| CCC(=O)O[C@]1(C(=O)SCF)[C@H](C)C[C@H]2[C@@H]3C[C@H](F)C4=CC(=O)C=C[C@]4(C)[C@@]3(F)[C@@H](O)C[C@@]21C [FLUTICASONE PROPIONATE] | Glucocorticoid receptor (Homo sapiens) (UniProt P04150) | Emax | % | 99 |

* * *

Biological target: Glucocorticoid receptor (Homo sapiens) (UniProt P04150)
Assay: Transactivation activity at glucocorticoid receptor in human HepG2 cells assessed as induction of tyrosine amino transferase at 1 uM relative to control
Assay type: cell-based
Entries and their Emax values follow.

| compound | Emax, % |
| --- | --- |
| C[C@]12CCC(=O)C=C1CC[C@@H]1[C@@H]2[C@@H](O)C[C@@]2(C)[C@H]1CC[C@]2(OC(=O)c1ccco1)C(=O)CSc1cnc2ccccc2n1 | 41 |
| Cn1c(SCC(=O)[C@@]2(OC(=O)c3ccco3)CC[C@H]3[C@@H]4CCC5=CC(=O)CC[C@]5(C)[C@H]4[C@@H](O)C[C@@]32C)nc2ccccc21 | 39 |
| CCC(=O)O[C@]1(C(=O)SCF)[C@H](C)C[C@H]2[C@@H]3C[C@H](F)C4=CC(=O)C=C[C@]4(C)[C@@]3(F)[C@@H](O)C[C@@]21C [FLUTICASONE PROPIONATE] | 113 |
| C[C@]12CCC(=O)C=C1CC[C@@H]1[C@@H]2[C@@H](O)C[C@@]2(C)[C@H]1CC[C@]2(OC(=O)c1ccco1)C(=O)CSc1nc2ncccc2s1 | 15 |
| Cc1ccnc(SCC(=O)[C@@]2(OC(=O)c3ccco3)CC[C@H]3[C@@H]4CCC5=CC(=O)C=C[C@]5(C)[C@H]4[C@@H](O)C[C@@]32C)n1 | 43 |

* * *

Molecular target: UniProt P06536
Sequence (whole entry): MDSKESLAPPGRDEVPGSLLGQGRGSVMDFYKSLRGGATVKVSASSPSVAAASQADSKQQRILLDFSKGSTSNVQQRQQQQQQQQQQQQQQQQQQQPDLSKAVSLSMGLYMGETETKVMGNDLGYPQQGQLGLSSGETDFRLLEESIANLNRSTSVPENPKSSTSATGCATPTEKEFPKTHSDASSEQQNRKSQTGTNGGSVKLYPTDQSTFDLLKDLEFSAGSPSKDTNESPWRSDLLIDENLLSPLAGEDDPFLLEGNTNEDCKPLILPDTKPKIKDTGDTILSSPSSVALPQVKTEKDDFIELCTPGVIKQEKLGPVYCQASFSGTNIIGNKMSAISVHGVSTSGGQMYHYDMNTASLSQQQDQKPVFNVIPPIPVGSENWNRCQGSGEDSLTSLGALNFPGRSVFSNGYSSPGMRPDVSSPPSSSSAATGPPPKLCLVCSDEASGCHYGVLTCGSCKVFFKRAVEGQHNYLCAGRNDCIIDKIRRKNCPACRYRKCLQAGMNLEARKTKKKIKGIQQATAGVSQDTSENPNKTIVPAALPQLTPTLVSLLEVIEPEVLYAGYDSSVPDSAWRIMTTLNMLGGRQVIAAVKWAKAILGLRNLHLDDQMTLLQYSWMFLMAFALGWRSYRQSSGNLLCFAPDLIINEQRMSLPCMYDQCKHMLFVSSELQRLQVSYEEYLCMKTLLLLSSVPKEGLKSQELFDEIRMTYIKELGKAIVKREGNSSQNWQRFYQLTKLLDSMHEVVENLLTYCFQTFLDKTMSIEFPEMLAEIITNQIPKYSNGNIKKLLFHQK
Assay: Transactivation activity at glucocorticoid receptor in rat H4II-E cells assessed as induction of tyrosine amino transferase at 1 uM relative to control
Assay type: cell-based
assay.metric: Emax (%)

| compound.structure.string | experimental.system | recorded.result |
| --- | --- | --- |
| C[C@]12C=CC(=O)C=C1CC[C@@H]1[C@@H]2[C@@H](O)C[C@@]2(C)[C@H]1CC[C@]2(OC(=O)c1ccco1)C(=O)CSc1nccc2ccccc12 | UniProt P06536 | 32 |
| C[C@]12CCC(=O)C=C1CC[C@@H]1[C@@H]2[C@@H](O)C[C@@]2(C)[C@H]1CC[C@]2(OC(=O)c1ccco1)C(=O)CSc1cnc2ccccc2n1 | UniProt P06536 | 9 |
| Cc1ccnc(SCC(=O)[C@@]2(OC(=O)c3ccco3)CC[C@H]3[C@@H]4CCC5=CC(=O)C=C[C@]5(C)[C@H]4[C@@H](O)C[C@@]32C)n1 | UniProt P06536 | 24 |

* * *

Target: Glucocorticoid receptor (Homo sapiens)
Sequence (P04150 whole entry): as the sequence (P04150 whole entry) above
Experiment: Transrepression activity at glucocorticoid receptor in human H292 cells assessed as inhibition of TNF-stimulated IL-6 cytokine synthesis
Format: cell-based
Entries and their IC50 values follow.
assay.metric: IC50 (nM)

| compound.structure.string | recorded.result |
| --- | --- |
| C[C@]12CCC(=O)C=C1CC[C@@H]1[C@@H]2[C@@H](O)C[C@@]2(C)[C@H]1CC[C@]2(OC(=O)c1ccco1)C(=O)CSc1nc2ccccc2s1 | 2 |
| C[C@]12CCC(=O)C=C1CC[C@@H]1[C@@H]2[C@@H](O)C[C@@]2(C)[C@H]1CC[C@]2(O)C(=O)CSc1nc2ccccc2s1 | 36 |
| C[C@@H]1C[C@H]2[C@@H]3C[C@H](F)C4=CC(=O)C=C[C@]4(C)[C@@]3(F)[C@@H](O)C[C@]2(C)[C@@]1(O)C(=O)CSc1nc2ccccc2s1 | 1.9 |
